assay_target: Serine/threonine-protein phosphatase PP1-alpha catalytic subunit (Homo sapiens)
test_name: inhibition of human PP1 catalytic subunit – biochemical, fluorescence, OMFP substrate, single point, counter-screen for PP5 inhibitor project, primary screen (AID 2235)
particulars: purified PP1alpha, at 6.7 µM
Screen size: about 320,000 compounds; about 2,800 (0.88%) were called active.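 Rule for the calls: active = inhibition above the mean inhibition of all tested compounds plus 3 SD, computed separately for each screening campaign (cut at about 15% in these data); inactive = the rest.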 The list comes from a sample in which actives are over-represented; it also holds close analogues and randomly drawn compounds.
Write down the outcome that applies. Available outcomes: active, inactive

Solved entries (count: 2):
>>> print(df.to_string())
                                   compound  assigned_label
0  OCCC1CN(Cc2ccc(Oc3ncccn3)cc2)CCN1CCc1ccccc1 (stereo not given)        inactive
1                        CCCCNCc1ccc(SC)cc1        inactive

Outcome? CC(=O)c1ccc(N2CCN(C(=O)C3CCN(S(=O)(=O)c4ccc5c(c4)CC(C)N5C(=O)C4CC4)CC3)CC2)cc1 (stereo not given)
inactive

Recorded test outcome, item COC(=O)CC(=O)N1CCN(c2ccc(Cl)c(Cl)c2)CC1
inactive

Identify the outcome logged in this assay for the compound shown: CC(=O)c1ccc(N2CCN(S(=O)(=O)c3ccc4c(c3)CC(=O)N4C)CC2)cc1
active

Entry source: PubChem BioAssay AID2235
